target: Beta-secretase 1 (Homo sapiens); assay: Inhibition of human recombinant BACE-1 expressed in HEK293 cells assessed as inhibition of amyloid precursor protein cleavage into amyloid beta after 60 mins using Rh-EVNLDAEFK-Quencher as a substrate by FRET assay; assay type: cell-based
Readout: pIC50
Interpret pIC50 as the negative base-10 log of the concentration measured in mol/L.

## Task Looking for the measured pIC50 of CC(C)(O)CCc1c(-c2ccc(O)cc2O)oc2c3c(cc(O)c2c1=O)OC(C)(C)C=C3 [MORUSINOL] , can you help?
## Result 3.87

***
## Task Report pIC50 for CC(C)=CC1Oc2cc(O)ccc2-c2oc3c4c(cc(O)c3c(=O)c21)OC(C)(C)C=C4 (stereo not drawn) [CYCLOMORUSIN] please.
## Result 3.99

## Task // lookup pIC50 for CC(C)=CCc1c(-c2ccc(O)cc2O)oc2c3c(cc(O)c2c1=O)OC(C)(C)C=C3 [MORUSIN]
## Result 4.23

## Task I am curious: what pIC50 value has been reported for CC(C)=CCc1c(-c2ccc(O)cc2O)oc2c(CC=C(C)C)c(O)cc(O)c2c1=O [KUWANON C] ?
## Result 5.47

## Task I'd like to know its pIC50. The molecule in question is C/C(=C/Cc1c(-c2ccc(O)cc2O)oc2c3c(cc(O)c2c1=O)OC(C)(CO)C=C3)CO (stereo not drawn) [MORMIN]
## Result 3.99

====

biological target: Beta-secretase 1 (Homo sapiens, UniProt P56817); experiment: Noncompetitive inhibition of human recombinant BACE-1 by Dixon plot analysis
Sequence (P56817 whole entry): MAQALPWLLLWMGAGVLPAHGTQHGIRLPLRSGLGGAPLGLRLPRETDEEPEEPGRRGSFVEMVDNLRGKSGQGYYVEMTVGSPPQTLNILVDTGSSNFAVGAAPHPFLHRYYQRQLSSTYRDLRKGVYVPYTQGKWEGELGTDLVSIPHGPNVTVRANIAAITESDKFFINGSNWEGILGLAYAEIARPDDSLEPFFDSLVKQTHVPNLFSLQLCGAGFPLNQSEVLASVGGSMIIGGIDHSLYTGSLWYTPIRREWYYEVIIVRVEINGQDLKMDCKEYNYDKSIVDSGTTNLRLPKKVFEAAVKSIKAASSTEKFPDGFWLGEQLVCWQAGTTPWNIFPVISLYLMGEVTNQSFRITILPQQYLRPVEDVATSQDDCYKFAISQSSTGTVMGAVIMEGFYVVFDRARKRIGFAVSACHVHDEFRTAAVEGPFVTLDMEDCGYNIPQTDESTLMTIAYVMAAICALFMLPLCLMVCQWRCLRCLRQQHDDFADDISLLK
# reported pKi; entries follow
Scale: pKi equals -log10([C]), with [C] in mol/L.

## Task Identify the measured pKi of O=c1cc(-c2ccc(O)cc2O)oc2cc(O)cc(O)c12 for Beta-secretase 1 (Homo sapiens, UniProt P56817).
## Result 4.08

## Task Kindly state the measured pKi obtained for CC(C)=CCc1c(-c2ccc(O)c3c2OC(C)(C)C=C3)oc2cc(O)cc(O)c2c1=O with Beta-secretase 1 (Homo sapiens, UniProt P56817).
## Result 4.97

## Task Find pKi (Beta-secretase 1 (Homo sapiens, UniProt P56817)) for the entry CC(C)=CCc1c(-c2ccc(O)cc2O)oc2c3c(cc(O)c2c1=O)OC(C)(C)C=C3
## Result 4.19

# input for lookup
## Task Which measured pKi belongs to CC(C)=CCc1c(-c2ccc(O)cc2O)oc2c(CC=C(C)C)c(O)cc(O)c2c1=O , tested on Beta-secretase 1 (Homo sapiens, UniProt P56817)?
## Result 5.66

====

target: Beta-secretase 1 (Homo sapiens); assay: Inhibition of human recombinant BACE-1 expressed in HEK293 cells assessed as inhibition of amyloid precursor protein cleavage into amyloid beta after 60 mins using Rh-EVNLDAEFK-Quencher as a substrate by FRET assay
Readout: IC50 (µM)
State the answer as a number, implicitly in µM.

Consider the worked cases shown below.
## Task Value lookup for IC50; key = CC(C)=CCc1c(-c2ccc(O)c3c2OC(C)(C)C=C3)oc2cc(O)cc(O)c2c1=O
## Result 5.3

## Task Need IC50, item O=c1cc(-c2ccc(O)cc2O)oc2cc(O)cc(O)c12
## Result 60.6

Consider the additional compound presented here.
## Task What does the data say about its IC50? Entry: CC1(C)C=Cc2c(cc(O)c3c(=O)c4c(oc23)-c2ccc(O)cc2OC(C(C)(C)O)C4)O1 (stereo not drawn)
## Result 146
